pIC50: −log10 of the molar value.
Record set of pIC50 for target or system Porcine pancreatic α-amylase (PPA) (Sus scrofa).
attribute_measured: pIC50

>>> print(df.to_string())
                                chem_smiles  obs_value
0  O=c1c(O)c(-c2cc(O)c(O)c(O)c2)oc2cc(O)cc(O)c12       4.62
1  O=C1C[C@@H](c2ccc(O)c(O)c2)Oc2cc(O)cc(O)c21       4.66

---

target_desc: LDH-A (lactate dehydrogenase-A)
method_summary: NADH oxidation at […] nm, crude goat liver enzyme
reported_conditions: 1.8 mM pyruvate, 5 mM NADH, 50 mM Tris pH 7.6
pIC50: −log10 of the molar value.
attribute_measured: pIC50

                                chem_smiles  obs_value
0  O=c1c(O)c(-c2ccc(O)c(O)c2)oc2cc(O)cc(O)c12       5.38
